- experimentalProtocol: Tacrolimus concentration in gastrointestinal tissue, luminal content and rectal contents, and tissue/plasma ratios (Example 13)
- Format: in vivo, Yorkshire-Cross farm swine
- assayContext: female, Yorkshire-Cross, pig, spiral colon tissue, other: intra-cecal, 0.04 mg/kg, spiral colon, Group 4 IC (0.04 mg/kg), swine; read-out: Ratio Tissue (mean) (ng/g)/Trough(12 hr) (ng/ml)
- Source text: The primary objective of this study was to study the pharmacokinetics of oral versus intra-cecal administration of tacrolimus in normal Yorkshire-Cross farm swine. […]
endpointName: Kp at 12 h
Answers are plain numbers.

The recorded Kp at 12 h for entry C=CC[C@@H]1/C=C(\C)C[C@H](C)C[C@H](OC)[C@H]2O[C@@](O)(C(=O)C(=O)N3CCCC[C@H]3C(=O)O[C@H](/C(C)=C/[C@@H]3CC[C@@H](O)[C@H](OC)C3)[C@H](C)[C@@H](O)CC1=O)[C@H](C)C[C@@H]2OC equals 175

---

- experimentalProtocol: Tacrolimus concentration in gastrointestinal tissue, luminal content and rectal contents, and tissue/plasma ratios (Example 13)
- Assay type: in vivo, Yorkshire-Cross farm swine
- assayContext: female, Yorkshire-Cross, pig, distal colon tissue, other: intra-cecal, 0.02 mg/kg, distal colon, Group 3 IC (0.02 mg/kg), swine; read-out: Ratio Tissue (mean) (ng/g)/Trough(12 hr) (ng/ml)
- Description: The primary objective of this study was to study the pharmacokinetics of oral versus intra-cecal administration of tacrolimus in normal Yorkshire-Cross farm swine. […]
endpointName: Kp at 12 h
Answers are plain numbers.

The recorded Kp at 12 h for entry C=CC[C@@H]1/C=C(\C)C[C@H](C)C[C@H](OC)[C@H]2O[C@@](O)(C(=O)C(=O)N3CCCC[C@H]3C(=O)O[C@H](/C(C)=C/[C@@H]3CC[C@@H](O)[C@H](OC)C3)[C@H](C)[C@@H](O)CC1=O)[C@H](C)C[C@@H]2OC [tacrolimus] equals 59.9

---

- experimentalProtocol: Tacrolimus concentration in gastrointestinal tissue, luminal content and rectal contents, and tissue/plasma ratios (Example 13)
- Format: in vivo, Yorkshire-Cross farm swine
- assayContext: female, Yorkshire-Cross, pig, other: intra-cecal; distal colon tissue, 12 hr post dose, Group 5 IC (0.09 mg/kg), swine
endpointName: concentration at 12 h
A bare number is not enough; add the unit after it.

The recorded concentration at 12 h for entry C=CC[C@@H]1/C=C(\C)C[C@H](C)C[C@H](OC)[C@H]2O[C@@](O)(C(=O)C(=O)N3CCCC[C@H]3C(=O)O[C@H](/C(C)=C/[C@@H]3CC[C@@H](O)[C@H](OC)C3)[C@H](C)[C@@H](O)CC1=O)[C@H](C)C[C@@H]2OC [tacrolimus] equals 67.7 ng/g

---

- experimentalProtocol: Tacrolimus concentration in gastrointestinal tissue, luminal content and rectal contents, and tissue/plasma ratios (Example 13)
- Assay type: in vivo, Yorkshire-Cross farm swine
- assayContext: female, Yorkshire-Cross, pig, other: intra-cecal device; distal colon tissue, 12 hr post dose, Group 3 IC (0.02 mg/kg), swine
endpointName: concentration at 12 hr (ng/g)
Answers are plain numbers, in ng/g.

The recorded concentration at 12 hr for entry C=CC[C@@H]1/C=C(\C)C[C@H](C)C[C@H](OC)[C@H]2O[C@@](O)(C(=O)C(=O)N3CCCC[C@H]3C(=O)O[C@H](/C(C)=C/[C@@H]3CC[C@@H](O)[C@H](OC)C3)[C@H](C)[C@@H](O)CC1=O)[C@H](C)C[C@@H]2OC equals 44.7

---

- experimentalProtocol: Tacrolimus concentration in gastrointestinal tissue, luminal content and rectal contents, and tissue/plasma ratios (Example 13)
- Type: in vivo, Yorkshire-Cross farm swine
- assayContext: female, Yorkshire-Cross, pig, spiral colon tissue, other: intra-cecal, 0.02 mg/kg, spiral colon, Group 3 IC (0.02 mg/kg), swine; read-out: Ratio Tissue (mean) (ng/g)/Trough(12 hr) (ng/ml)
endpointName: Kp at 12 h
Answers are plain numbers.

The recorded Kp at 12 h for entry C=CC[C@@H]1/C=C(\C)C[C@H](C)C[C@H](OC)[C@H]2O[C@@](O)(C(=O)C(=O)N3CCCC[C@H]3C(=O)O[C@H](/C(C)=C/[C@@H]3CC[C@@H](O)[C@H](OC)C3)[C@H](C)[C@@H](O)CC1=O)[C@H](C)C[C@@H]2OC equals 273

---

- experimentalProtocol: Tacrolimus concentration in gastrointestinal tissue, luminal content and rectal contents, and tissue/plasma ratios (Example 13)
- Type: in vivo, Yorkshire-Cross farm swine
- assayContext: female, Yorkshire-Cross, pig, transverse colon tissue, other: intra-cecal, 0.02 mg/kg, transverse colon, Group 3 IC (0.02 mg/kg), swine; read-out: Ratio Tissue (mean) (ng/g)/Trough(12 hr) (ng/ml)
endpointName: Kp at 12 h
Numbers only.

The recorded Kp at 12 h for entry C=CC[C@@H]1/C=C(\C)C[C@H](C)C[C@H](OC)[C@H]2O[C@@](O)(C(=O)C(=O)N3CCCC[C@H]3C(=O)O[C@H](/C(C)=C/[C@@H]3CC[C@@H](O)[C@H](OC)C3)[C@H](C)[C@@H](O)CC1=O)[C@H](C)C[C@@H]2OC equals 172

---

- experimentalProtocol: Tacrolimus concentration in gastrointestinal tissue, luminal content and rectal contents, and tissue/plasma ratios (Example 13)
- Format: in vivo, Yorkshire-Cross farm swine
- assayContext: female, Yorkshire-Cross, pig, transverse colon tissue, other: intra-cecal, 0.04 mg/kg, transverse colon, Group 4 IC (0.04 mg/kg), swine; read-out: Ratio Tissue (mean) (ng/g)/Trough(12 hr) (ng/ml)
- From the text: The primary objective of this study was to study the pharmacokinetics of oral versus intra-cecal administration of tacrolimus in normal Yorkshire-Cross farm swine. […]
endpointName: Kp at 12 h
Give bare numbers.

The recorded Kp at 12 h for entry C=CC[C@@H]1/C=C(\C)C[C@H](C)C[C@H](OC)[C@H]2O[C@@](O)(C(=O)C(=O)N3CCCC[C@H]3C(=O)O[C@H](/C(C)=C/[C@@H]3CC[C@@H](O)[C@H](OC)C3)[C@H](C)[C@@H](O)CC1=O)[C@H](C)C[C@@H]2OC equals 43.8

---

- experimentalProtocol: Tacrolimus concentration in gastrointestinal tissue, luminal content and rectal contents, and tissue/plasma ratios (Example 13)
- Type: in vivo, Yorkshire-Cross farm swine
- assayContext: female, Yorkshire-Cross, pig, in vivo, po, 0.09 mg/kg, Ratio Tissue (mean) (ng/g)/Trough(12 hr) (ng/ml)
endpointName: Kp at 12 h
Answers are plain numbers.

The recorded Kp at 12 h for entry C=CC[C@@H]1/C=C(\C)C[C@H](C)C[C@H](OC)[C@H]2O[C@@](O)(C(=O)C(=O)N3CCCC[C@H]3C(=O)O[C@H](/C(C)=C/[C@@H]3CC[C@@H](O)[C@H](OC)C3)[C@H](C)[C@@H](O)CC1=O)[C@H](C)C[C@@H]2OC equals 0

---

- experimentalProtocol: Blood pharmacokinetics of oral vs intra-cecal tacrolimus (Example 13)
- Parameters: species or system Yorkshire-Cross farm swine
- assayContext: female, Yorkshire-Cross, pig, in vivo, 0.04 mg/kg
endpointName: AUC(0-t)

The recorded AUC(0-t) for entry C=CC[C@@H]1/C=C(\C)C[C@H](C)C[C@H](OC)[C@H]2O[C@@](O)(C(=O)C(=O)N3CCCC[C@H]3C(=O)O[C@H](/C(C)=C/[C@@H]3CC[C@@H](O)[C@H](OC)C3)[C@H](C)[C@@H](O)CC1=O)[C@H](C)C[C@@H]2OC equals 51.4 ng·h/mL

---

- experimentalProtocol: Blood pharmacokinetics of oral vs intra-cecal tacrolimus (Example 13)
- Design: species or system Yorkshire-Cross farm swine
- assayContext: female, Yorkshire-Cross, pig, in vivo, 0.02 mg/kg
endpointName: Cmax (ng/mL)
Give bare numbers, in ng/mL.

The recorded Cmax for entry C=CC[C@@H]1/C=C(\C)C[C@H](C)C[C@H](OC)[C@H]2O[C@@](O)(C(=O)C(=O)N3CCCC[C@H]3C(=O)O[C@H](/C(C)=C/[C@@H]3CC[C@@H](O)[C@H](OC)C3)[C@H](C)[C@@H](O)CC1=O)[C@H](C)C[C@@H]2OC equals 2.39

---

- experimentalProtocol: Tacrolimus concentration in gastrointestinal tissue, luminal content and rectal contents, and tissue/plasma ratios (Example 13)
- Format: in vivo, Yorkshire-Cross farm swine
- assayContext: female, Yorkshire-Cross, pig, proximal colon tissue, other: intra-cecal, 0.09 mg/kg, proximal colon, Group 5 IC (0.09 mg/kg), swine; read-out: Ratio Tissue (mean) (ng/g)/Trough(12 hr) (ng/ml)
endpointName: Kp at 12 h
One number for each entry.

The recorded Kp at 12 h for entry C=CC[C@@H]1/C=C(\C)C[C@H](C)C[C@H](OC)[C@H]2O[C@@](O)(C(=O)C(=O)N3CCCC[C@H]3C(=O)O[C@H](/C(C)=C/[C@@H]3CC[C@@H](O)[C@H](OC)C3)[C@H](C)[C@@H](O)CC1=O)[C@H](C)C[C@@H]2OC [tacrolimus] equals 36.1

FYI, the data here is from patent US20200094031A1.
